From: the supplement of paper PMC9732359

Can you tell me protein stability index for the items I'm about to list?
# procedure.details: protein stability index of a GFP-peptide fusion (yeast GPS) (PSI 1-4); higher = more stable; sorted into four equal gates, so the index is relative within each strain
# test.conditions: ubr1∆
Number only, no unit.

Which measured protein stability index value corresponds to IVMEDHGVLQGTSQNYG [MED1] ?
3.07

Then this sequence: GNLSKREIQIDAVLKIF [SRB8]
2.68

Then this sequence: IFNSGKMIILDKLLKRL [ISW2]
2.17

Then this sequence: DVFNLLPNLGTPDDDEI [RPN8]
1.43

Then this sequence: FIRVIGSELVQKYVGEG [RPT1]
2.84

Then this sequence: SSLFLDGLEKAAFNGVT [FAS2]
2.88

Then this sequence: RVLTQDGRVYIGQLMAF [SMB1]
3.05

Then this sequence: FDQSTNVKVIMATNRAD [RPT3]
2.02

Then this sequence: PKSSPLKKNNYNSFPHS [SIR4]
3.06

Then this sequence: FIKFKLIQQVPPGLDAL [CDC53]
2.27

Then this sequence: PNADDIRDSIPQMDSFD [DIS3]
3.06

Then this sequence: SPQKFETNLQTFLPPLL [ECM29]
2.92

Then this sequence: LPVNIRRIIQNAQQTFH [RPO21]
1.56

Then this sequence: RKRHQRALKVRNAQAQR [RPS6A]
2.96

Then this sequence: WLAEKFQKETNMKVTIL [PRP28]
2.79

Then this sequence: LGVEDITLIDSASLHLN [RET1]
1.8

Then this sequence: MKQYSYLMDSKNVRTRI [RRI1]
2.94

Then this sequence: RGRGRGRGRGRGRPPKA [SNF2]
3.27

Then this sequence: FSYQEVEFKLPKELVPS [CDC53]
1.91

Then this sequence: VKKASGEIVSINQINEA [RPL20A]
2.79

Then this sequence: IPSSYIKRTDEGGEAEF [ARP7]
3.45

Then this sequence: NEEGDWSCIVVENWIID [ITC1]
2.95

Then this sequence: DEQDDDNVNSTTGSIFE [BRN1]
2.85

Then this sequence: SLIIDQQENSKSGKRKP [RPC31]
2.7

Then this sequence: LARACAAQTNATFLKLA [RPT5]
2.6

Then this sequence: VVRNMLALTTLSEPLIK [YCG1]
1.66

Then this sequence: MDFGVDPSMDPELAMAL [RPN10]
2.84

Then this sequence: GTGKTMLVKAVANSTKA [RPT3]
1.31

Then this sequence: SAVIIDEFKDITKEVTQ [YIL149C/MLP2]
2.8

Then this sequence: KLQGLYENIPIYATFLN [YDL116W/NUP84]
1.13

Then this sequence: TELKKKLDDLENTKDNL [SMC1]
2.72
